- test: chemical genetic growth profiling, strain panel (AID 1159580);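 further: tested at 20 µM; growth read once vehicle control cultures reached saturation at 30 °C; lower values mean less growth of the strain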
- reported-conditions: S. cerevisiae deletion strains, growth OD, locus YOL136C, strain PFK27
About 2,000 (36%) of roughly 5,500 compounds were called active. Inconclusive results (about 18%) are left out. No stated cut-off is given here; in the data, active means normalized growth mostly below about 0.91 (no sharp cut-off); inconclusive means no clear call, values can overlap the other calls; inactive means mostly above about 0.92. The list shows a part of the results.
# output must be one of active, inactive

# compound, discrete-label
measured = [
    ("O=C(NNC(=O)c1csc(-c2cccs2)n1)c1ccc(C(F)(F)F)cc1", "inactive"),
    ("Cc1ccc(C(O)(c2ccccc2)c2ccccc2)c2ccccc12", "inactive"),
    ("COc1ccc(C2CC(c3ccccc3)=Nc3ccccc3S2)cc1OC (stereo unspecified)", "inactive"),
    ("O=C1Nc2ccccc2/C1=N/N=C\\c1ccccc1Cl", "inactive"),
]

input: Query: recorded result category for `CN(C(=O)N(C)c1ccc(Cl)cc1C(=O)c1ccccc1Cl)c1ccc(Cl)cc1C(=O)c1ccccc1Cl` in this test
output: active

input: Also `O=C1c2ccccc2O[C@@H](c2ccccc2)[C@@H]1NC1CCCCC1` ?
output: inactive

input: Also `CC(C)(C)c1csc(NC(=O)c2ccc(Cl)cc2Cl)n1` ?
output: inactive

input: Also `O=C(NCc1cccs1)c1csc(Cc2c(Cl)cccc2Cl)n1` ?
output: inactive

input: Also `N#Cc1c(Br)cnn1Cc1cc(C(F)(F)F)cc(C(F)(F)F)c1` ?
output: inactive

input: Also `Cc1nc(-c2ccc(C(F)(F)F)cn2)[nH]c(=O)c1Cl` ?
output: inactive

input: Also `CC(C)(C)c1cc2nc(C(F)(F)F)cc(NNC(=O)c3ccc(Cl)cc3)n2n1` ?
output: inactive

FYI, the data here is from PubChem BioAssay AID1159580.
